Recorded values, source patent US20260125379A1.

# IC50 per entry for JAK1 (Homo sapiens)
Numbers only, in nM.

Some compounds with recorded IC50:
INSERT INTO measurements (compound, measured_attribute, measurement) VALUES
  ('CC(=O)O[C@H](C)c1nc2cnc3[nH]ccc3c2n1N1CCC(CC#N)CC1 [Compound A5]', 'IC50', 1.83),
  ('N#CC[C@H]1CC[C@H](n2c(N)nc3cnc4[nH]ccc4c32)CC1 [Compound B3]', 'IC50', 0.04),
  ('C[C@@H](OC(=O)CCc1ccccc1/N=N/c1ccc(O)c(C(=O)O)c1)c1nc2cnc3[nH]ccc3c2n1N1CCC(CC#N)CC1 [Compound A1]', 'IC50', 133);

Please find the next compound below.
Short answer for CSCC1(C)CCN(n2c(CO[N+](=O)[O-])nc3cnc4[nH]ccc4c32)CC1 [Compound A11] : IC50 was 5.62

###

# pIC50 per entry for UniProt:P23458
Numbers only, as −log10 of the molar value.

Some compounds with recorded pIC50:
INSERT INTO results (smiles_text, measured_attribute, measurement) VALUES
  ('CSCC1(C)CCN(n2c(CCO[N+](=O)[O-])nc3cnc4[nH]ccc4c32)CC1', 'pIC50', 7.41),
  ('N#CC[C@H]1CC[C@H](n2c(N)nc3cnc4ccoc4c32)CC1', 'pIC50', 8.88),
  ('C[C@@H](OC(=O)Nc1ccccc1/N=N/c1ccc(O)c(C(=O)O)c1)c1nc2cnc3[nH]ccc3c2n1N1CCC(CC#N)CC1', 'pIC50', 6.98);

Please find the next compound below.
The compound N#CC[C@H]1CC[C@H](n2c(/N=N/c3ccc(O)c(C(=O)O)c3)nc3cnc4[nH]ccc4c32)CC1 , tested on UniProt:P23458, showed pIC50 of 9.35

###

assay: Plasma pharmacokinetics in rats after single gavage; type: in vivo; conditions: rat, po; plasma, SD rats, administration group Compound A3 40 mg/kg by gavage; read-out: Tmax
measured attribute: Tmax (h)
Give bare numbers, in h.

Short answer for C[C@@H](OC(=O)C(C)(C)Oc1ccccc1/N=N/c1ccc(O)c(C(=O)O)c1)c1nc2cnc3[nH]ccc3c2n1N1CCC(CC#N)CC1 : Tmax was 4

###

assay: Plasma pharmacokinetics in rats after single gavage; format: in vivo; conditions: rat, po; plasma, SD rats, administration group Compound A3 40 mg/kg by gavage; read-out: Cmax
measured attribute: Cmax (ng/mL)
One number for each entry, in ng/mL.

Short answer for C[C@@H](OC(=O)C(C)(C)Oc1ccccc1/N=N/c1ccc(O)c(C(=O)O)c1)c1nc2cnc3[nH]ccc3c2n1N1CCC(CC#N)CC1 : Cmax was 2.08

###

# IC50 per entry for JAK1 (Homo sapiens)
One number for each entry, in nM.

INSERT INTO measurements (smiles_text, measured_attribute, measurement) VALUES
  ('C[C@@H](OC(=O)OCc1ccc(/N=N/c2ccc(O)c(C(=O)O)c2)cc1)c1nc2cnc3[nH]ccc3c2n1N1CCC(CC#N)CC1', 'IC50', 5.94),
  ('N#CC[C@H]1CC[C@H](n2c(/N=N/c3ccc(O)c(C(=O)N[C@H](CC(=O)O)C(=O)O)c3)nc3cnc4[nH]ccc4c32)CC1', 'IC50', 1.75),
  ('COC(=O)/C=C/C(=O)OCO[C@H](C)c1nc2cnc3[nH]ccc3c2n1N1CCC(CC#N)CC1', 'IC50', 96.7);

Please find the next compound below.
Short answer for CC(C)[C@@H](N)C(=O)O[C@H](C)c1nc2cnc3[nH]ccc3c2n1N1CCC(CC#N)CC1 : IC50 was 5.86
